Reference source: paper PMC5836133

- assay.target: GST-NbGlk1(82-244) (Nicotiana benthamiana)
- Chain: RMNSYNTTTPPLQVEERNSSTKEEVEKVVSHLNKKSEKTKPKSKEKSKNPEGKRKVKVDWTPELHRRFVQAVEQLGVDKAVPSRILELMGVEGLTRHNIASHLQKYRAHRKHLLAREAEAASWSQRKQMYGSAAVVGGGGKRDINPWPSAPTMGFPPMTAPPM
- measurement.notes: protein-binding microarray; NbGlk1 is a Golden2-like transcription factor of Nicotiana benthamiana; high values mean tight binding
- stated.conditions: protein: recombinant; tags: GST (pTH6838); dsDNA, one strand shown
The full ranking holds about 16,000 sequences; the median of “e-score” is about -0.044, and the highest 2% start at about 0.38. Shown is part of a subset that was picked to be rich in the highest values.
Outcome: yes for binding signal of at least 0.3 E-score; no for anything lower.

1. ATCCTCAA : yes
2. ACAAATAA : no
3. ATATAAAT : no
4. AAATATGA : no
5. ATACGTTA : no
